system: 188146-221-R-J1-PDC complex spheroid viability; experiment: Anticancer human tumor 188146-221-R-J1-PDC patient-derived colon adenocarcinoma cell line growth inhibition [POLQ]; conditions: second compound 10 µM; first compound 10 µM; hits give low values
recordedEndpoint: viability, T/C (%)
Please give a number only; it is taken to be in %.

q: Find the recorded viability, T/C belonging to CC1COCCN1c1cc(C2(O)CC3CCC(C2)O3)c2cnn(-c3ccn[nH]3)c2n1 (stereo not drawn) + Nc1ccc(C#CCN(C(=O)Cc2ncc(C(F)(F)F)cc2C(F)(F)F)c2ccc(F)cc2)nn1 and report it.
a: 7.06

q: Find the recorded viability, T/C belonging to CCc1cc2c(N3CCc4c(cc(Cn5ccnc5)cc4-c4cn(C)nc4C(F)(F)F)C3=O)ccnc2c(OC)n1 + COC1C(OC(N)=O)C(O)C(Oc2ccc3c(O)c(NC(=O)c4ccc(O)c(CC=C(C)C)c4)c(=O)oc3c2C)OC1(C)C and report it.
a: 59

q: Find the recorded viability, T/C belonging to CCCS(=O)(=O)Nc1ccc(F)c(C(=O)c2c[nH]c3ncc(-c4ccc(Cl)cc4)cc23)c1F + COC1C(OC(N)=O)C(O)C(Oc2ccc3c(O)c(NC(=O)c4ccc(O)c(CC=C(C)C)c4)c(=O)oc3c2C)OC1(C)C and report it.
a: 26

---

test system: 188146-221-R-J1-PDC complex spheroid viability; experiment: Anticancer human tumor 188146-221-R-J1-PDC cell line growth inhibition [POLQ]; conditions: second compound 1 µM; first compound 10 µM; hits give low values;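 also: spheroids exposed to compounds for seven days; 100% = DMSO vehicle control viability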
Binarize viability, T/C at 50%; below is YES, at or above is NO.

q: Bench note: check whether CCc1cc2c(N3CCc4c(cc(Cn5ccnc5)cc4-c4cn(C)nc4C(F)(F)F)C3=O)ccnc2c(OC)n1 + COC1C(OC(N)=O)C(O)C(Oc2ccc3c(O)c(NC(=O)c4ccc(O)c(CC=C(C)C)c4)c(=O)oc3c2C)OC1(C)C shows viability, T/C below 50%
a: YES

q: Bench note: check whether CC1COCCN1c1cc(-c2ccnn2C)c2ccnc(-c3ccn[nH]3)c2n1 (stereo unspecified) + Nc1ccc(C#CCN(C(=O)Cc2ncc(C(F)(F)F)cc2C(F)(F)F)c2ccc(F)cc2)nn1 shows viability, T/C below 50%
a: YES

q: Bench note: check whether COc1cc2cc(C(=O)CCC(=O)O)sc2cc1OC + Nc1ccc(C#CCN(C(=O)Cc2ncc(C(F)(F)F)cc2C(F)(F)F)c2ccc(F)cc2)nn1 shows viability, T/C below 50%
a: NO

q: Bench note: check whether C=CC(=O)N1CCN(c2nc(=O)n(-c3c(C)ccnc3C(C)C)c3nc(-c4c(O)cccc4F)c(F)cc23)C(C)C1 (stereo unspecified) + Nc1ccc(C#CCN(C(=O)Cc2ncc(C(F)(F)F)cc2C(F)(F)F)c2ccc(F)cc2)nn1 shows viability, T/C below 50%
a: NO

q: Bench note: check whether CC(C)n1c(=O)n(C)c2cnc3cc(F)c(-c4ccc(OCCCN5CCCCC5)nc4)cc3c21 + Cc1cccc(N(C)C(=O)C2C(O)CCN2c2nc(C)cc(C(F)(F)F)c2C#N)c1 shows viability, T/C below 50%
a: NO

q: Bench note: check whether CC1COCCN1c1cc(C2(S(C)(=N)=O)CC2)nc(-c2ccnc3[nH]ccc23)n1 (stereo unspecified) + Cc1cccc(N(C)C(=O)C2C(O)CCN2c2nc(C)cc(C(F)(F)F)c2C#N)c1 shows viability, T/C below 50%
a: YES

q: Bench note: check whether C=CC(=O)N1CCN(c2nc(=O)n(-c3c(C)ccnc3C(C)C)c3nc(-c4c(O)cccc4F)c(F)cc23)C(C)C1 (stereo unspecified) + Cc1cccc(N(C)C(=O)C2C(O)CCN2c2nc(C)cc(C(F)(F)F)c2C#N)c1 shows viability, T/C below 50%
a: NO

q: Bench note: check whether COc1cccc2c1C(=O)c1c(O)c3c(c(O)c1C2=O)CC(O)(C(=O)CO)CC3OC1CC(N)C(O)C(C)O1 (stereo unspecified) + Cc1cccc(N(C)C(=O)C2C(O)CCN2c2nc(C)cc(C(F)(F)F)c2C#N)c1 shows viability, T/C below 50%
a: YES

q: Bench note: check whether COc1cc(C2c3cc4c(cc3C(OC3OC5COC(C)OC5C(O)C3O)C3COC(=O)C23)OCO4)cc(OC)c1O (stereo unspecified) + Nc1ccc(C#CCN(C(=O)Cc2ncc(C(F)(F)F)cc2C(F)(F)F)c2ccc(F)cc2)nn1 shows viability, T/C below 50%
a: YES

q: Bench note: check whether CCCS(=O)(=O)Nc1ccc(F)c(C(=O)c2c[nH]c3ncc(-c4ccc(Cl)cc4)cc23)c1F + Nc1ccc(C#CCN(C(=O)Cc2ncc(C(F)(F)F)cc2C(F)(F)F)c2ccc(F)cc2)nn1 shows viability, T/C below 50%
a: YES

q: Bench note: check whether COc1cc2cc(C(=O)CCC(=O)O)sc2cc1OC + COC1C(OC(N)=O)C(O)C(Oc2ccc3c(O)c(NC(=O)c4ccc(O)c(CC=C(C)C)c4)c(=O)oc3c2C)OC1(C)C shows viability, T/C below 50%
a: NO

q: Bench note: check whether CCCS(=O)(=O)Nc1ccc(F)c(C(=O)c2c[nH]c3ncc(-c4ccc(Cl)cc4)cc23)c1F + COC1C(OC(N)=O)C(O)C(Oc2ccc3c(O)c(NC(=O)c4ccc(O)c(CC=C(C)C)c4)c(=O)oc3c2C)OC1(C)C shows viability, T/C below 50%
a: YES

q: Bench note: check whether O=C(Nc1ccc(O)c(NS(=O)(=O)c2ccc(F)cc2)c1)c1ccc(-c2ccccc2)cc1 + Cc1cccc(N(C)C(=O)C2C(O)CCN2c2nc(C)cc(C(F)(F)F)c2C#N)c1 shows viability, T/C below 50%
a: NO

q: Bench note: check whether Nc1ccn(C2OC(CO)C(O)C2(F)F)c(=O)n1 (stereo unspecified) + COC1C(OC(N)=O)C(O)C(Oc2ccc3c(O)c(NC(=O)c4ccc(O)c(CC=C(C)C)c4)c(=O)oc3c2C)OC1(C)C shows viability, T/C below 50%
a: YES

q: Bench note: check whether O=c1[nH]cc(F)c(=O)[nH]1 + Cc1cccc(N(C)C(=O)C2C(O)CCN2c2nc(C)cc(C(F)(F)F)c2C#N)c1 shows viability, T/C below 50%
a: YES

q: Bench note: check whether Nc1ccn(C2OC(CO)C(O)C2(F)F)c(=O)n1 (stereo unspecified) + Cc1cccc(N(C)C(=O)C2C(O)CCN2c2nc(C)cc(C(F)(F)F)c2C#N)c1 shows viability, T/C below 50%
a: YES

q: Bench note: check whether COc1ccc([C@@H](O)c2cc(-c3ncnc4cc(N5CCOCC5)ccc34)c(F)cc2Cl)nn1 + Nc1ccc(C#CCN(C(=O)Cc2ncc(C(F)(F)F)cc2C(F)(F)F)c2ccc(F)cc2)nn1 shows viability, T/C below 50%
a: YES

q: Bench note: check whether O=C(Nc1ccc(O)c(NS(=O)(=O)c2ccc(F)cc2)c1)c1ccc(-c2ccccc2)cc1 + Nc1ccc(C#CCN(C(=O)Cc2ncc(C(F)(F)F)cc2C(F)(F)F)c2ccc(F)cc2)nn1 shows viability, T/C below 50%
a: NO

q: Bench note: check whether CCc1cc2c(N3CCc4c(cc(Cn5ccnc5)cc4-c4cn(C)nc4C(F)(F)F)C3=O)cc(C)nc2c(OC)n1 + COC1C(OC(N)=O)C(O)C(Oc2ccc3c(O)c(NC(=O)c4ccc(O)c(CC=C(C)C)c4)c(=O)oc3c2C)OC1(C)C shows viability, T/C below 50%
a: NO

q: Bench note: check whether CC(C)n1c(=O)n(C)c2cnc3cc(F)c(-c4ccc(OCCCN5CCCCC5)nc4)cc3c21 + COC1C(OC(N)=O)C(O)C(Oc2ccc3c(O)c(NC(=O)c4ccc(O)c(CC=C(C)C)c4)c(=O)oc3c2C)OC1(C)C shows viability, T/C below 50%
a: NO

---

Field: viability, T/C. Provide a value for each of the compounds that follow.
tested on: 188146-221-R-J1-PDC complex spheroid viability; experiment: Anticancer human tumor 188146-221-R-J1-PDC cell line growth inhibition [POLQ]; details: second compound 0.1 µM; first compound 0.1 µM; hits give low values;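 also: spheroids exposed to compounds for seven days; 100% = DMSO vehicle control viability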
Please give a number only; it is taken to be in %.

q: Find the recorded viability, T/C belonging to COc1cccc2c1C(=O)c1c(O)c3c(c(O)c1C2=O)CC(O)(C(=O)CO)CC3OC1CC(N)C(O)C(C)O1 (stereo not given) + Nc1ccc(C#CCN(C(=O)Cc2ncc(C(F)(F)F)cc2C(F)(F)F)c2ccc(F)cc2)nn1 and report it.
a: 48.3

q: Find the recorded viability, T/C belonging to CCc1cc2c(N3CCc4c(cc(Cn5ccnc5)cc4-c4cn(C)nc4C(F)(F)F)C3=O)cc(C)nc2c(OC)n1 + Nc1ccc(C#CCN(C(=O)Cc2ncc(C(F)(F)F)cc2C(F)(F)F)c2ccc(F)cc2)nn1 and report it.
a: 101

q: Find the recorded viability, T/C belonging to CNCc1ccc(-c2[nH]c3cc(F)cc4c3c2CCNC4=O)cc1 + Cc1cccc(N(C)C(=O)C2C(O)CCN2c2nc(C)cc(C(F)(F)F)c2C#N)c1 and report it.
a: 98.6

q: Find the recorded viability, T/C belonging to CC(C)n1c(=O)n(C)c2cnc3cc(F)c(-c4ccc(OCCCN5CCCCC5)nc4)cc3c21 + COC1C(OC(N)=O)C(O)C(Oc2ccc3c(O)c(NC(=O)c4ccc(O)c(CC=C(C)C)c4)c(=O)oc3c2C)OC1(C)C and report it.
a: 95.8

q: Find the recorded viability, T/C belonging to COc1cc2cc(C(=O)CCC(=O)O)sc2cc1OC + COC1C(OC(N)=O)C(O)C(Oc2ccc3c(O)c(NC(=O)c4ccc(O)c(CC=C(C)C)c4)c(=O)oc3c2C)OC1(C)C and report it.
a: 98.3

q: Find the recorded viability, T/C belonging to Cn1ncnc1[C@H]1c2n[nH]c(=O)c3cc(F)cc(c23)N[C@@H]1c1ccc(F)cc1 + Nc1ccc(C#CCN(C(=O)Cc2ncc(C(F)(F)F)cc2C(F)(F)F)c2ccc(F)cc2)nn1 and report it.
a: 96

q: Find the recorded viability, T/C belonging to Nc1ccn(C2OC(CO)C(O)C2(F)F)c(=O)n1 (stereo not given) + COC1C(OC(N)=O)C(O)C(Oc2ccc3c(O)c(NC(=O)c4ccc(O)c(CC=C(C)C)c4)c(=O)oc3c2C)OC1(C)C and report it.
a: 29.4

q: Find the recorded viability, T/C belonging to CCCS(=O)(=O)Nc1ccc(F)c(C(=O)c2c[nH]c3ncc(-c4ccc(Cl)cc4)cc23)c1F + COC1C(OC(N)=O)C(O)C(Oc2ccc3c(O)c(NC(=O)c4ccc(O)c(CC=C(C)C)c4)c(=O)oc3c2C)OC1(C)C and report it.
a: 102

q: Find the recorded viability, T/C belonging to COc1ccc([C@@H](O)c2cc(-c3ncnc4cc(N5CCOCC5)ccc34)c(F)cc2Cl)nn1 + Nc1ccc(C#CCN(C(=O)Cc2ncc(C(F)(F)F)cc2C(F)(F)F)c2ccc(F)cc2)nn1 and report it.
a: 91.3

q: Find the recorded viability, T/C belonging to CNCc1ccc(-c2[nH]c3cc(F)cc4c3c2CCNC4=O)cc1 + COC1C(OC(N)=O)C(O)C(Oc2ccc3c(O)c(NC(=O)c4ccc(O)c(CC=C(C)C)c4)c(=O)oc3c2C)OC1(C)C and report it.
a: 104

q: Find the recorded viability, T/C belonging to CCc1cc2c(N3CCc4c(cc(Cn5ccnc5)cc4-c4cn(C)nc4C(F)(F)F)C3=O)ccnc2c(OC)n1 + COC1C(OC(N)=O)C(O)C(Oc2ccc3c(O)c(NC(=O)c4ccc(O)c(CC=C(C)C)c4)c(=O)oc3c2C)OC1(C)C and report it.
a: 108

q: Find the recorded viability, T/C belonging to COc1cc2cc(C(=O)CCC(=O)O)sc2cc1OC + Nc1ccc(C#CCN(C(=O)Cc2ncc(C(F)(F)F)cc2C(F)(F)F)c2ccc(F)cc2)nn1 and report it.
a: 115

q: Find the recorded viability, T/C belonging to CCCS(=O)(=O)Nc1ccc(F)c(C(=O)c2c[nH]c3ncc(-c4ccc(Cl)cc4)cc23)c1F + Nc1ccc(C#CCN(C(=O)Cc2ncc(C(F)(F)F)cc2C(F)(F)F)c2ccc(F)cc2)nn1 and report it.
a: 98.2

q: Find the recorded viability, T/C belonging to CC1COCCN1c1cc(C2(S(C)(=N)=O)CC2)nc(-c2ccnc3[nH]ccc23)n1 (stereo not given) + COC1C(OC(N)=O)C(O)C(Oc2ccc3c(O)c(NC(=O)c4ccc(O)c(CC=C(C)C)c4)c(=O)oc3c2C)OC1(C)C and report it.
a: 100

q: Find the recorded viability, T/C belonging to O=C(Nc1ccc(O)c(NS(=O)(=O)c2ccc(F)cc2)c1)c1ccc(-c2ccccc2)cc1 + Cc1cccc(N(C)C(=O)C2C(O)CCN2c2nc(C)cc(C(F)(F)F)c2C#N)c1 and report it.
a: 92.1

q: Find the recorded viability, T/C belonging to CC1COCCN1c1cc(-c2ccnn2C)c2ccnc(-c3ccn[nH]3)c2n1 (stereo not given) + COC1C(OC(N)=O)C(O)C(Oc2ccc3c(O)c(NC(=O)c4ccc(O)c(CC=C(C)C)c4)c(=O)oc3c2C)OC1(C)C and report it.
a: 57.8

q: Find the recorded viability, T/C belonging to CC(C)n1c(=O)n(C)c2cnc3cc(F)c(-c4ccc(OCCCN5CCCCC5)nc4)cc3c21 + Cc1cccc(N(C)C(=O)C2C(O)CCN2c2nc(C)cc(C(F)(F)F)c2C#N)c1 and report it.
a: 98.5

q: Find the recorded viability, T/C belonging to CC1COCCN1c1cc(C2(O)CC3CCC(C2)O3)c2cnn(-c3ccn[nH]3)c2n1 (stereo not given) + Nc1ccc(C#CCN(C(=O)Cc2ncc(C(F)(F)F)cc2C(F)(F)F)c2ccc(F)cc2)nn1 and report it.
a: 77.2

q: Find the recorded viability, T/C belonging to CC1COCCN1c1cc(C2(O)CC3CCC(C2)O3)c2cnn(-c3ccn[nH]3)c2n1 (stereo not given) + COC1C(OC(N)=O)C(O)C(Oc2ccc3c(O)c(NC(=O)c4ccc(O)c(CC=C(C)C)c4)c(=O)oc3c2C)OC1(C)C and report it.
a: 78.5

q: Find the recorded viability, T/C belonging to O=C(c1cc(Cc2n[nH]c(=O)c3ccccc23)ccc1F)N1CCN(C(=O)C2CC2)CC1 + Cc1cccc(N(C)C(=O)C2C(O)CCN2c2nc(C)cc(C(F)(F)F)c2C#N)c1 and report it.
a: 103
